Target: Protein kinase C alpha type (Homo sapiens)
pIC50: −log10 of the molar value.
reported.endpoint: pIC50

NCCNS(=O)(=O)c1cccc2ccncc12 [Isoquinolinesulfonamide, CKI-6] | < 3.00
NCCNS(=O)(=O)c1cccc2cnccc12 | 4.74

Shifting focus to the compound that follows.
Any idea what its pIC50 is? The compound is NCCNS(=O)(=O)c1ccc(Cl)c2ccncc12 [Isoquinolinesulfonamide, CKI-7]
< 3.00

###

Below, each entry is listed with its recorded pIC50.
Biological target: Casein kinase II subunit alpha (Homo sapiens, UniProt P68400)
Sequence (P68400 whole entry): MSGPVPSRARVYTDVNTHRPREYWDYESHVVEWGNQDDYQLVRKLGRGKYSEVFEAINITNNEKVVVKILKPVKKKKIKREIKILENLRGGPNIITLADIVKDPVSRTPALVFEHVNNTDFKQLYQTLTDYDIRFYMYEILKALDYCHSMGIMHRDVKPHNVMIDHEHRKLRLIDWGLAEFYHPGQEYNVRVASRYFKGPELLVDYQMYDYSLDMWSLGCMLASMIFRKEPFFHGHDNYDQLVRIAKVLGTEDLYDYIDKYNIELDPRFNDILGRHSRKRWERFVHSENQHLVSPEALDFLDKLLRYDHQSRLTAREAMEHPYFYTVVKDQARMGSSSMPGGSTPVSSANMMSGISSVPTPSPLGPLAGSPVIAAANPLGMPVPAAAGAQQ
Experiment: Enzyme Assay
Conditions: pH 7.4; 30 °C
pIC50: −log10 of the molar value.

Reference set, count: 2
NCCNS(=O)(=O)c1cccc2cnccc12 | < 3.52
NCCNS(=O)(=O)c1ccc(Cl)c2ccncc12 [Isoquinolinesulfonamide, CKI-7] | 4.05

Shifting focus to the compound that follows.
Please state recorded pIC50 (tested on Casein kinase II subunit alpha (Homo sapiens, UniProt P68400)) of NCCNS(=O)(=O)c1cccc2ccncc12 [Isoquinolinesulfonamide, CKI-6]
< 3.52

###

Target: Casein kinase I isoform alpha (Homo sapiens)
Sequence (P48729 whole entry, canonical isoform): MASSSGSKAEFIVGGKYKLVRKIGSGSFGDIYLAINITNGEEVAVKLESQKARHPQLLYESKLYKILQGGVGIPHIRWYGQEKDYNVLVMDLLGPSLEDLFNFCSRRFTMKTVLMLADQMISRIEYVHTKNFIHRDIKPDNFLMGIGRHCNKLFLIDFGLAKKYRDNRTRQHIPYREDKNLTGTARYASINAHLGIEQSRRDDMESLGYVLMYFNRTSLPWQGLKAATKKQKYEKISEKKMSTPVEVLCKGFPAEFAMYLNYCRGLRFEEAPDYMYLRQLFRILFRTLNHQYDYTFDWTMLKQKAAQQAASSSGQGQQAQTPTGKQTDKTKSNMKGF
Experiment: Enzyme Assay
Details: pH 7.4; 30 °C
pIC50: −log10 of the molar value.
reported.endpoint: pIC50

NCCNS(=O)(=O)c1cccc2cnccc12 | 3.96

[a] NCCNS(=O)(=O)c1cccc2ccncc12 [Isoquinolinesulfonamide, CKI-6]
[b] NCCNS(=O)(=O)c1ccc(Cl)c2ccncc12 [Isoquinolinesulfonamide, CKI-7]
For the pair a and b , which member has the lower pIC50 number? Identify your selection by its label.
a
(a: 4.30, b: 5.02)
